- System: pest eggs of Tetranychus cinnabarinus
- Experimental protocol: Effect on hatching of pest eggs of Tetranychus cinnabarinus, leaf disc method
- Type: in vivo
- Measurement context: 0.25 mg/L, 7 days after insecticide delivery, Replicate 2
Field 'label' (enum: Yes / No). Set to Yes when Hatching rate (%) is strictly under 70%; else No.

CC(COc1ccc(Cl)cc1Cl)OS(=O)OCCF [1′-(R,R)]: No
CC[C@@H](COS(=O)OCCF)Oc1ccc(Cl)cc1Cl (stereo partly drawn) [19′-(S,S)]: Yes
C[C@@H](COS(=O)OCCF)Oc1ccc(Cl)cc1Cl (stereo partly drawn) [1-(S,S)]: Yes
C[C@H](COS(=O)OCCF)Oc1ccc(Cl)cc1Cl (stereo partly drawn) [1-(R,R)]: Yes
CCC(COS(=O)OCCF)Oc1ccc(Cl)cc1Cl (centres unmarked) [Compound 19′]: No
CCC(COS(=O)OCCF)Oc1ccc(Cl)cc1Cl [19′-(R,R)]: Yes
C[C@@H](COS(=O)OCCF)Oc1ccc(Cl)cc1Cl (stereo partly drawn) [1-(S,R)]: No

----------
- System: eggs of Spodoptera litura
- Experimental protocol: Effect on hatching of eggs of Spodoptera litura, egg piece soaking
- Assay type: in vivo
- Measurement context: Spodoptera litura eggs, 500 ppm, soaked 10 minutes, replicate 2
Listed here are compounds together with their documented Number of unhatched larvae 4 days after insecticide delivery, Replicate 2.
Quantity measured: Number of unhatched larvae 4 days after insecticide delivery, Replicate 2

CC(C)(COc1ccc(Cl)cc1Cl)OS(=O)OCCF (stereo not shown) [Compound 10]: 36
CCC(COS(=O)OCCF)Oc1ccc(Cl)cc1Cl (stereo not shown): 38
CC(C)(COS(=O)OCCF)Oc1ccc(Cl)cc1Cl (stereo not shown) [R-10′]: 22
CC(COS(=O)OCCF)Oc1ccc(Cl)cc1Cl (stereo not shown): 38
CC(C)(COc1ccc(Cl)cc1Cl)OS(=O)OCCF (stereo not shown) [Compound R-10]: 19
CC[C@H](COc1ccc(Cl)cc1Cl)OS(=O)OCCF (stereo partly drawn) [19-(R,S)]: 50
CC(COc1ccc(Cl)cc1Cl)OS(=O)OCCF (stereo not shown): 37
CC[C@H](COS(=O)OCCF)Oc1ccc(Cl)cc1Cl (stereo partly drawn) [19′-(R,S)]: 32
CCC(COc1ccc(Cl)cc1Cl)OS(=O)OCCF (stereo not shown): 44
CC(C)(COS(=O)OCCF)Oc1ccc(Cl)cc1Cl (stereo not shown) [Compound 10′]: 36
CC[C@@H](COc1ccc(Cl)cc1Cl)OS(=O)OCCF (stereo partly drawn) [19-(S,R)]: 55
CC(C)(COS(=O)OCCF)Oc1ccc(Cl)cc1Cl (stereo not shown) [S-10′]: 50
CC(C)(COc1ccc(Cl)cc1Cl)OS(=O)OCCF (stereo not shown) [Compound S-10]: 54

----------
- Tested on: Magnaporthe grisea
- Assay type: cell-based
- Measurement context: 100 ppm, 96-well plate, replicate 2
Reported Antifungal rate of Magnaporthe grisea (%), Replicate 2 by item:
Quantity measured: Antifungal rate of Magnaporthe grisea (%), Replicate 2

CC(C)(COS(=O)OCCF)Oc1ccc(Cl)cc1Cl (centres unmarked) [S-10′]: 99.64
C[C@@H](COS(=O)OCCF)Oc1ccc(Cl)cc1Cl (stereo partly drawn) [1-(S,R)]: 82.96
CC[C@H](COS(=O)OCCF)Oc1ccc(Cl)cc1Cl (stereo partly drawn) [19′-(R,S)]: 86.41
CCC(COc1ccc(Cl)cc1Cl)OS(=O)OCCF (centres unmarked) [Compound 19]: 95.14
CC(C)(COc1ccc(Cl)cc1Cl)OS(=O)OCCF (centres unmarked) [Compound 10]: 94.52
CC(COc1ccc(Cl)cc1Cl)OS(=O)OCCF [1′-(S,S)]: 83.06
CCC(COS(=O)OCCF)Oc1ccc(Cl)cc1Cl (centres unmarked) [Compound 19′]: 93.48
CCC(COc1ccc(Cl)cc1Cl)OS(=O)OCCF [19-(R,R)]: 83.56
CC(COc1ccc(Cl)cc1Cl)OS(=O)OCCF [1′-(S,R)]: 102.01
CC(C)(COS(=O)OCCF)Oc1ccc(Cl)cc1Cl (centres unmarked) [R-10′]: 81.95
CC[C@@H](COc1ccc(Cl)cc1Cl)OS(=O)OCCF (stereo partly drawn) [19-(S,R)]: 99.34
CC[C@H](COc1ccc(Cl)cc1Cl)OS(=O)OCCF (stereo partly drawn) [19-(R,S)]: 100.15
CC(C)(COc1ccc(Cl)cc1Cl)OS(=O)OCCF (centres unmarked) [Compound S-10]: 99.72
CC(COS(=O)OCCF)Oc1ccc(Cl)cc1Cl (centres unmarked) [Compound 1]: 95.11
CCC(COS(=O)OCCF)Oc1ccc(Cl)cc1Cl [19′-(R,R)]: 97.35
CC(COc1ccc(Cl)cc1Cl)OS(=O)OCCF [1′-(R,S)]: 99.74
C[C@@H](COS(=O)OCCF)Oc1ccc(Cl)cc1Cl (stereo partly drawn) [1-(S,S)]: 95.02
CC(COc1ccc(Cl)cc1Cl)OS(=O)OCCF [1′-(R,R)]: 83.06
CC[C@@H](COS(=O)OCCF)Oc1ccc(Cl)cc1Cl (stereo partly drawn) [19′-(S,R)]: 85.97
CC(C)(COc1ccc(Cl)cc1Cl)OS(=O)OCCF (centres unmarked) [Compound R-10]: 83.68
C[C@H](COS(=O)OCCF)Oc1ccc(Cl)cc1Cl (stereo partly drawn) [1-(R,R)]: 99.12
C[C@H](COS(=O)OCCF)Oc1ccc(Cl)cc1Cl (stereo partly drawn) [1-(R,S)]: 83.08
CC(COc1ccc(Cl)cc1Cl)OS(=O)OCCF (centres unmarked) [Compound 1′]: 98.76
CC[C@@H](COS(=O)OCCF)Oc1ccc(Cl)cc1Cl (stereo partly drawn) [19′-(S,S)]: 96.58
CCC(COc1ccc(Cl)cc1Cl)OS(=O)OCCF [19-(S,S)]: 83.17
CC(C)(COS(=O)OCCF)Oc1ccc(Cl)cc1Cl (centres unmarked) [Compound 10′]: 95.16

----------
- Test system: eggs of Harmonia axyridis
- Experimental protocol: Effect on hatching of eggs of Harmonia axyridis, egg card immersion
- Type: in vivo
- Measurement context: Harmonia axyridis egg cards, 100 ppm, immersed 30 seconds, replicate 3
Quantity measured: Number of hatched larvae 4 days after insecticide delivery, Replicate 3

CC(C)(COS(=O)OCCF)Oc1ccc(Cl)cc1Cl (stereo not drawn) [S-10′]: 0
CC(C)(COc1ccc(Cl)cc1Cl)OS(=O)OCCF (stereo not drawn) [Compound S-10]: 0
CCC(COS(=O)OCCF)Oc1ccc(Cl)cc1Cl (stereo not drawn): 7
CC(C)(COc1ccc(Cl)cc1Cl)OS(=O)OCCF (stereo not drawn) [Compound 10]: 7
CCC(COc1ccc(Cl)cc1Cl)OS(=O)OCCF (stereo not drawn): 4
CC(COS(=O)OCCF)Oc1ccc(Cl)cc1Cl (stereo not drawn): 6

----------
- System: eggs of Tetranychus urticae
- Experimental protocol: Effect on hatching of eggs of Tetranychus urticae, leaf disc method
- Format: in vivo
- Measurement context: 5 ppm, 5 days after insecticide delivery, Replicate 1
Quantity measured: Hatching rate (%)

CCC(COS(=O)OCCF)Oc1ccc(Cl)cc1Cl (stereo not drawn) [Compound 19′]: 1.14
CC(C)(COc1ccc(Cl)cc1Cl)OS(=O)OCCF (stereo not drawn) [Compound R-10]: 18.06
CC(C)(COc1ccc(Cl)cc1Cl)OS(=O)OCCF (stereo not drawn) [Compound 10]: 1.94

----------
# Number of hatched larvae 7 days after insecticide delivery per entry
- System: pest eggs of Tetranychus cinnabarinus
- Experimental protocol: Effect on hatching of pest eggs of Tetranychus cinnabarinus, leaf disc method
- Type: in vivo
- Measurement context: 1 mg/L, Replicate 1
Quantity measured: Number of hatched larvae 7 days after insecticide delivery

CC[C@H](COc1ccc(Cl)cc1Cl)OS(=O)OCCF (stereo partly drawn) [19-(R,S)]: 59
CC[C@@H](COc1ccc(Cl)cc1Cl)OS(=O)OCCF (stereo partly drawn) [19-(S,R)]: 60
CC(C)(COS(=O)OCCF)Oc1ccc(Cl)cc1Cl (stereo not drawn) [S-10′]: 59

----------
- System: pest eggs of Tetranychus cinnabarinus
- Experimental protocol: Effect on hatching of pest eggs of Tetranychus cinnabarinus, leaf disc method
- Assay type: in vivo
- Measurement context: 0.25 mg/L, 7 days after insecticide delivery, Replicate 2
The following compounds are listed with their measured Hatching rate (%) values.
Quantity measured: Hatching rate (%)

CCC(COc1ccc(Cl)cc1Cl)OS(=O)OCCF (stereo not shown) [Compound 19]: 69.74
CC(COc1ccc(Cl)cc1Cl)OS(=O)OCCF [1′-(S,S)]: 69.57
CC[C@H](COS(=O)OCCF)Oc1ccc(Cl)cc1Cl (stereo partly drawn) [19′-(R,S)]: 71.43
CC[C@@H](COS(=O)OCCF)Oc1ccc(Cl)cc1Cl (stereo partly drawn) [19′-(S,R)]: 69.23
